Numbers sourced from patent US10336701B2.

- system-name: EP3 receptor (Homo sapiens, UniProt P43115)
- Construct: purchased Millipore HTS092M
- Sequence (P43115 1-390): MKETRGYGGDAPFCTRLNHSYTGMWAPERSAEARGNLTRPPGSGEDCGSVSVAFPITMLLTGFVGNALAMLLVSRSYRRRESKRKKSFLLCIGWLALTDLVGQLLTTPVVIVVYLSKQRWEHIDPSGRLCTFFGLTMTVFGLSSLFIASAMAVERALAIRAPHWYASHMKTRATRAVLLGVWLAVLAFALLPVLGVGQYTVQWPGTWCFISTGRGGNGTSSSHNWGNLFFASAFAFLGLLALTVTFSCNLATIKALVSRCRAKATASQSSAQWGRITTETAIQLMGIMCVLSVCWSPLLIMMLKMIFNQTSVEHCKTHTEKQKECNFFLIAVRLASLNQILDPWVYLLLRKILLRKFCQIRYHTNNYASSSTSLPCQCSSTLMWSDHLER
- measurement-protocol: [3H]-PGE2 binding assay (EP3 competition binding)
- run-parameters: read-out: [3H]-PGE2 Binding Ki
endpoint-name: Ki (nM)

1 = CCn1ncc2c(F)cc(-c3ccc(C(CC)(CC)Cc4ncco4)c(=O)[nH]3)cc21
2 = CC(C)C(C(=O)NCCN(C)C)c1ccc(-c2ccc3scnc3c2)[nH]c1=O (centres unmarked)
Task: Returns the identifier with the smallest measured Ki among 1 and 2 . Answer format: the label of the selected item.
Output: 1

A = CCn1ncc2c(F)cc(-c3ccc(C(CC)(CC)c4nnc(C(C)C)o4)c(=O)[nH]3)cc21
B = CC(C)C1(c2ccc(-c3ccc4cccc(F)c4c3)[nH]c2=O)NC(=S)NC1=O (centres unmarked)
Task: Returns the identifier with the smallest measured Ki among A and B . Answer format: the label of the selected item.
Output: B
(B: 6 nM, A: 13 nM)

a = CCS(=O)(=O)N1CCC(c2ccc(-c3ccc4ccccc4c3)[nH]c2=O)CC1
b = CCn1ncc2c(F)cc(-c3ccc(C(CC)(CC)CC4CCNC4=O)c(=O)[nH]3)cc21 (centres unmarked)
Task: Could you please tell me which of these two has the higher Ki: a or b ? Answer format: the label of the selected item.
Output: a
(a: 32 nM, b: 11 nM)

a = N#CC1(OC(N)=O)CCCC(c2ccc(-c3ccc4ccccc4c3)[nH]c2=O)C1 (centres unmarked)
b = CCC(/C=C1/OC(=O)NC1=O)(CC)c1ccc(-c2ccc3cc(F)cc(F)c3c2)[nH]c1=O
Task: Could you please tell me which of these two has the higher Ki: a or b ? Answer format: the label of the selected item.
Output: b
(b: 292 nM, a: 31 nM)
